Experiment: Pharmacokinetic test in mice
Format: in vivo
Settings: both sexes, ICR, mouse, plasma, po, 150 mg/kg intragastric administration
Parameter measured: AUC(0-inf) (µg·h/mL)
Kindly answer with a numeric value in µg·h/mL, unit omitted.

Tell me the measured AUC(0-inf) of CO[C@H]1CN(c2ccc(C(C)(C)O)nn2)CC[C@H]1NC(=O)c1[nH]c(C)c(Cl)c1Cl [Compound 1] , please. 933

====

Assay: Pharmacokinetic test in mice
Type: in vivo
Details: both sexes, ICR, mouse, plasma, po, 150 mg/kg intragastric administration
Parameter measured: Tmax
Please give the number followed by its unit.

What does the data say about its Tmax? Entry: CO[C@H]1CN(c2ccc(C(C)(C)O)nn2)CC[C@H]1NC(=O)c1[nH]c(C)c(Cl)c1Cl 1 h
